# Test system: CD34 + CD45RA- cells
# testProtocol: Expansion of CD34+CD45RA- cells compared to DMSO (EC50)
# Format: cell-based
# condition: concentration of compound necessary to expand 50% more of CD34+CD45RA- cells as compared to cells treated with DMSO
pEC50: −log10 of the molar value.

>  <molecule>
COC(=O)c1ccc2c(c1)[nH]c1nc(Cc3ccccc3)nc(NCC3CCCNC3)c12 (stereo not shown)

>  <system>
CD34 + CD45RA- cells

>  <pEC50>
8.15

$$$$
>  <molecule>
CCN(CC)CCN(CC)c1nc(Cc2ccccc2)nc2[nH]c3cc(C(=O)OC)cnc3c12

>  <system>
CD34 + CD45RA- cells

>  <pEC50>
6.40

$$$$
>  <molecule>
COC(=O)c1ccc2c(c1)[nH]c1cc(Cc3cccc(OC)c3)nc(NCCCCN3CCCC3)c12

>  <system>
CD34 + CD45RA- cells

>  <pEC50>
7.12

$$$$
>  <molecule>
COC(=O)c1ccc2c(c1)[nH]c1nc(C(=O)c3ccccc3)nc(SCCCN3CCCCC3)c12

>  <system>
CD34 + CD45RA- cells

>  <pEC50>
8.30

$$$$
>  <molecule>
COC(=O)c1ccc2c(c1)[nH]c1nc(Cc3ccccc3)nc(NCc3cnc(C)cn3)c12

>  <system>
CD34 + CD45RA- cells

>  <pEC50>
7.32

$$$$
>  <molecule>
CN(CCCNC(=O)COCCOCCN)CCCNc1nc(Cc2ccccc2)nc2[nH]c3cc(-c4nnn(C)n4)ccc3c12

>  <system>
CD34 + CD45RA- cells

>  <pEC50>
6.60

$$$$
>  <molecule>
COC(=O)c1ccc2c(c1)[nH]c1nc(Cc3ccccc3)nc(NCC(O)CO)c12 (stereo not shown)

>  <system>
CD34 + CD45RA- cells

>  <pEC50>
7.23

$$$$
>  <molecule>
COC(=O)c1ccc2c(c1)[nH]c1nc(Cc3cccc(C(=O)C(F)(F)F)c3)nc(NCCCN3CCCCC3)c12

>  <system>
CD34 + CD45RA- cells

>  <pEC50>
7.51

$$$$
>  <molecule>
C#CCOC(CNc1nc(Cc2ccccc2)nc2[nH]c3cc(C(=O)OC)ccc3c12)CN1CCCCC1 (stereo not shown)

>  <system>
CD34 + CD45RA- cells

>  <pEC50>
7.62

$$$$
>  <molecule>
CNCCCNc1ncnc2[nH]c3cc(-c4nnn(C)n4)ccc3c12

>  <system>
CD34 + CD45RA- cells

>  <pEC50>
6.87

$$$$
>  <molecule>
COC(=O)c1ccc2c(c1)[nH]c1nc(Cc3ccccc3)nc(NCCN3CCOCC3)c12

>  <system>
CD34 + CD45RA- cells

>  <pEC50>
7.92

$$$$
>  <molecule>
CNS(=O)(=O)c1ccc(CNc2nc(Cc3ccccc3)nc3[nH]c4cc(C(=O)OC)ccc4c23)cc1

>  <system>
CD34 + CD45RA- cells

>  <pEC50>
7.21

$$$$
>  <molecule>
COC(=O)c1ccc2c(c1)[nH]c1nc(Cc3ccccc3)nc(CCCCN3CCCCC3)c12

>  <system>
CD34 + CD45RA- cells

>  <pEC50>
7.82

$$$$
>  <molecule>
COC(=O)c1ccc2c(c1)[nH]c1nc(Cc3cccc(CC(=O)O)c3)nc(NCCCN(C)CCCN)c12

>  <system>
CD34 + CD45RA- cells

>  <pEC50>
6.95

$$$$
>  <molecule>
COC(=O)c1ccc2c(c1)[nH]c1nc(C(C)c3ccccc3)nc(NCCCN3CCCCC3)c12 (stereo not shown)

>  <system>
CD34 + CD45RA- cells

>  <pEC50>
7.17

$$$$
>  <molecule>
COC(=O)c1ccc2c(c1)[nH]c1nc(Cc3ccccc3)nc(NCCN(C)CC(F)F)c12

>  <system>
CD34 + CD45RA- cells

>  <pEC50>
6.47

$$$$

Source: patent US12011460B2
